System: GENE-TOX genotoxicity assays, various organisms and cells
method: GENE-TOX mutagenicity studies
test_settings: Species/Cell Type: Human lymphocytes or leukocytes; Assay Type: Chromosome aberrations in vitro; Assay Code: CY7+D; Dose Response: With dose response; Evaluation Type: Evaluation A (Pre-1980)
The source made the active and inactive calls. The rule behind the calls is not given here.
measured_parameter: mutagenic call

# compound, measured_result
measured = [
    ("OCl", "active; positive"),
    ("COP(=O)(OC)OC", "active; positive"),
    ("CCN(N=O)C(N)=O", "active; positive"),
    ("Cc1c(N)nc([C@H](CC(N)=O)NC[C@H](N)C(N)=O)nc1C(=O)N[C@H](C(=O)N[C@H](C)[C@@H](O)[C@H](C)C(=O)N[C@H](C(=O)NCCc1nc(-c2nc(C(=O)NCCC[S+](C)C)cs2)cs1)[C@@H](C)O)[C@@H](OC1OC(CO)C(O)C(O)C1OC1OC(CO)C(O)C(OC(N)=O)C1O)c1cnc[nH]1 (stereo partly specified)", "active; positive"),
    ("CS(=O)(=O)OCCCCOS(C)(=O)=O", "active; positive"),
    ("O=P1(N(CCCl)CCCl)NCCCO1 (stereo unspecified)", "active; positive"),
]
